Items are presented alongside their recorded IC50.
Biological target: MAGI 3 PDZ3 (Homo sapiens)
Construct: PDZ2 and PDZ3 were purified as glutathione S-transferase (GST) fusions from E coli; GST; made in house; host or cells: E. coli
Sequence (Q5TCQ9 726-808 limits assumed): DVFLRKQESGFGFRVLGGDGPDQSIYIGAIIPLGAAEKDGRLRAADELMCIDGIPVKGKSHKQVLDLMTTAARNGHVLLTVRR
Test: Competition ELISA, peptide blocking PDZ domain binding to immobilized peptide
Description: Many methods are known and can be used to identify the binding affinities of PDZ domain binding ligands (e.g. peptides, proteins, small mollecules, etc.); for example, binding affinities can be determined as IC50 values using competition ELISAs. […] The plates are then developed with the appropriate substrate (depending on the label) and the signal quantified, such as using a spectrophotometric plate reader. […]
Where no end group is shown, it is not given here.
measurement kind: IC50

{"columns": ["substance", "system", "measurement kind", "result"],
 "data": [
  ["DGICSWV [DGICSWV]", "MAGI 3 PDZ3 (Homo sapiens)", "IC50", "> 1 mM"],
  ["ASKVTWV [ASKVTWV]", "MAGI 3 PDZ3 (Homo sapiens)", "IC50", "> 1 mM"]
]}

* * *

Molecular target: ERBIN PDZ domain (Homo sapiens)
Sequence (Q96RT1 1258-1412): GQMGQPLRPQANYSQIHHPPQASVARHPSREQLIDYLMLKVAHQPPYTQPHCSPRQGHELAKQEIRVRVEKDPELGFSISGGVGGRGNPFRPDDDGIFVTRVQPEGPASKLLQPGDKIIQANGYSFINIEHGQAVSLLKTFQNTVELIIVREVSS
Assay: Competition ELISA, ERBIN PDZ-GST binding to immobilized biotinylated peptide
Set-up: made in house; host or cells: E. coli
Details: ERBIN peptide truncations without N-terminal acylation; read-out: IC50
Experimental: Binding affinities of the peptides for the ERBIN PDZ domain were determined as IC50 values using competition ELISAs. […] Assay plates were prepared by coating Maxisorp plates overnight at 4° C. with 65 μl of a 2 μg/ml solution of neutravidin in PBS. […] The plates were read at 450 nm and the absorption fit to a binding curve using a least squares fit. Binding affinities of the peptides for the ERBIN PDZ domain were determined as IC50 values using competition ELISAs. […]
Where a SMILES comes first, the peptide text is derived from it.
Items are presented alongside their recorded IC50.

{"columns": ["compound", "system", "IC50"],
 "data": [
  ["CC(C)[C@H](NC(=O)[C@H](Cc1c[nH]c2ccccc12)NC(=O)[C@@H](N)[C@@H](C)O)C(=O)O [H1N -TWV] (H-Thr-Trp-Val-OH; C-terminus assumed)", "ERBIN PDZ domain (Homo sapiens)", "105 µM"],
  ["CC(C)[C@H](NC(=O)[C@H](Cc1c[nH]c2ccccc12)NC(=O)[C@@H](NC(=O)[C@@H](N)CCC(=O)O)[C@@H](C)O)C(=O)O [H1N -ETWV] (H-ETWV-OH; C-terminus assumed)", "ERBIN PDZ domain (Homo sapiens)", "16.5 µM"]
]}

* * *

Biological target: ERBIN PDZ domain (Homo sapiens)
Assay: Competition ELISA, ERBIN PDZ-GST binding to immobilized biotinylated peptide
Set-up: made in house; host or cells: E. coli
Conditions: Small molecules that inhibit ERBIN PDZ domain from binding immobilized WETWV; read-out: IC50

{"columns": ["compound", "IC50, µM"],
 "data": [
  ["CC(C)C(NC(=O)C(Cc1cc2ccccc2[nH]1)NC(=O)c1cc2ccccc2[nH]1)C(=O)O (stereo not shown)", 549],
  ["CC(C)C(NC(=O)C(Cc1cc2ccccc2[nH]1)NC(=O)c1cnc2ccccc2n1)C(=O)O (stereo not shown)", 334],
  ["CC(C)C(NC(=O)C(Cc1cc2ccccc2[nH]1)NC(=O)c1ccc(-c2ccc([N+](=O)[O-])cc2)o1)C(=O)O (stereo not shown)", 697],
  ["CC(C)C(NC(=O)C(Cc1cc2ccccc2[nH]1)NC(=O)C1CCc2ccccc2C1)C(=O)O (stereo not shown)", 304]
]}
